conditionContext: in n-butanol, 283.15 K

structureNotation | solubility (mole fraction)
C[C@H](CCC(=O)O)[C@H]1CC[C@H]2[C@@H]3CC[C@@H]4C[C@H](O)CC[C@]4(C)[C@H]3C[C@H](O)[C@]12C | 0.00134
C[C@H](CCC(=O)O)[C@H]1CC[C@H]2[C@@H]3[C@H](O)C[C@@H]4C[C@H](O)CC[C@]4(C)[C@H]3C[C@H](O)[C@]12C | 0.00219

====

conditionContext: in n-hexanol, 293.15 K

structureNotation | solubility (mole fraction)
C[C@H](CCC(=O)O)[C@H]1CC[C@H]2[C@@H]3[C@H](O)C[C@@H]4C[C@H](O)CC[C@]4(C)[C@H]3C[C@H](O)[C@]12C | 0.0166
C[C@H](CCC(=O)O)[C@H]1CC[C@H]2[C@@H]3CC[C@@H]4C[C@H](O)CC[C@]4(C)[C@H]3C[C@H](O)[C@]12C | 0.00902

====

conditionContext: in cyclohexanone, 293.15 K
Form field: solubility (mole fraction) (one value per entry).
measurementKind: solubility (mole fraction)

structureNotation | measurementKind | observedResult
C[C@H](CCC(=O)O)[C@H]1CC[C@H]2[C@@H]3[C@H](O)C[C@@H]4C[C@H](O)CC[C@]4(C)[C@H]3C[C@H](O)[C@]12C | solubility (mole fraction) | 0.00842
C[C@H](CCC(=O)O)[C@H]1CC[C@H]2[C@@H]3CC[C@@H]4C[C@H](O)CC[C@]4(C)[C@H]3C[C@H](O)[C@]12C | solubility (mole fraction) | 0.00214

====

conditionContext: in n-hexanol, 323.15 K

structureNotation | solubility (mole fraction)
C[C@H](CCC(=O)O)[C@H]1CC[C@H]2[C@@H]3[C@H](O)C[C@@H]4C[C@H](O)CC[C@]4(C)[C@H]3C[C@H](O)[C@]12C | 0.0223
C[C@H](CCC(=O)O)[C@H]1CC[C@H]2[C@@H]3CC[C@@H]4C[C@H](O)CC[C@]4(C)[C@H]3C[C@H](O)[C@]12C | 0.0153

====

conditionContext: in n-butyl acetate, 303.15 K
measurementKind: solubility (mole fraction)

structureNotation | observedResult
C[C@H](CCC(=O)O)[C@H]1CC[C@H]2[C@@H]3CC[C@@H]4C[C@H](O)CC[C@]4(C)[C@H]3C[C@H](O)[C@]12C | 0.000415
C[C@H](CCC(=O)O)[C@H]1CC[C@H]2[C@@H]3[C@H](O)C[C@@H]4C[C@H](O)CC[C@]4(C)[C@H]3C[C@H](O)[C@]12C | 0.000378

====

Form field: solubility (mole fraction) (one value per entry).
conditionContext: in ethyl acetate, 303.15 K
measurementKind: solubility (mole fraction)

structureNotation | observedResult
C[C@H](CCC(=O)O)[C@H]1CC[C@H]2[C@@H]3CC[C@@H]4C[C@H](O)CC[C@]4(C)[C@H]3C[C@H](O)[C@]12C | 0.000448
C[C@H](CCC(=O)O)[C@H]1CC[C@H]2[C@@H]3[C@H](O)C[C@@H]4C[C@H](O)CC[C@]4(C)[C@H]3C[C@H](O)[C@]12C | 0.000392

====

conditionContext: in gamma-valerolactone, 303.15 K

structureNotation | solubility (mole fraction)
C[C@H](CCC(=O)O)[C@H]1CC[C@H]2[C@@H]3CC[C@@H]4C[C@H](O)CC[C@]4(C)[C@H]3C[C@H](O)[C@]12C | 0.00217
C[C@H](CCC(=O)O)[C@H]1CC[C@H]2[C@@H]3[C@H](O)C[C@@H]4C[C@H](O)CC[C@]4(C)[C@H]3C[C@H](O)[C@]12C | 0.00258
